Test system: OVCAR-3 ovarian
Assay: NCI tumour cell line growth inhibition, 48 h
Where a SMILES comes first, the peptide text is derived from it. The star is where a group is joined. Boc = CC(C)(C)OC(=O)*
MEASURE: TGI

Solved entries:
> print(dat)
                                   compound  measure  observed.measurement
1                 Cc1ccc(C(N)=Nc2ccccc2)cc1      TGI              > 100 µM
2  CC(NC(=O)OC(C)(C)C)C(=O)NC(Cc1ccccc1)C(=O)NCC(=O)O (stereo not drawn) (Boc-Ala-Phe-Gly-OH; configuration not given here)      TGI              > 100 µM

Now consider the entry below.
Report TGI for O=c1n(N=S(=O)(c2ccccc2)c2ccccc2)c(=O)n2n1C1C=CC2CC1 tested on OVCAR-3 ovarian. > 100 µM
